# ASSAY_TEXT: chemical genetic growth profiling, strain panel (AID 1159580);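 further: tested at 20 µM; growth read once vehicle control cultures reached saturation at 30 °C; 1 = growth at the plate median or of vehicle wells; lower values mean less growth of the strain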
# TEST_PARAMETERS: S. cerevisiae deletion strains, growth OD, locus YPL241C, strain CIN2
The whole screen tested about 5,500 compounds, of which about 2,000 (36%) were called active. Roughly 18% stayed inconclusive and do not appear here. No stated cut-off is given here; in the data, active means normalized growth mostly below about 0.91 (no sharp cut-off); inconclusive means no clear call, values can overlap the other calls; inactive means mostly above about 0.92. The list shows a part of the results.
Give one outcome, nothing more. List: active, inactive

Here's what some known entries look like.
STRUCTURE_AS_SMILES: CCCc1cc(=O)oc2cc(OCC(=O)OCC)ccc12
QUALITATIVE_LABEL: inactive

STRUCTURE_AS_SMILES: CNNC
QUALITATIVE_LABEL: inactive

STRUCTURE_AS_SMILES: CCCCCCc1cc2c(C)cc(=O)oc2cc1O
QUALITATIVE_LABEL: inactive

STRUCTURE_AS_SMILES: C/C1=C/CC(C)(C)/C=C/C/C(C)=C/CC1
QUALITATIVE_LABEL: inactive

STRUCTURE_AS_SMILES: N=C(N)N
QUALITATIVE_LABEL: inactive

Problem: Which outcome was entered for the molecule "CCOC(=O)c1ccc(NC(N)=S)cc1" in this test?
Result: inactive

Problem: Which outcome was entered for the molecule "Cc1cccc(Cn2nc(C(C)(C)C)cc2C(=O)O)c1" in this test?
Result: inactive

Problem: Which outcome was entered for the molecule "Cc1ccc(-c2nn[nH]n2)cc1Cl" in this test?
Result: inactive

Problem: Which outcome was entered for the molecule "CCOC(=O)CSc1nc2cc(C(F)(F)F)cnc2n1C" in this test?
Result: inactive

Problem: Which outcome was entered for the molecule "CCN(CC)CCOCCOC(=O)C1(c2ccccc2)CCCC1" in this test?
Result: inactive

Problem: Which outcome was entered for the molecule "N[C@@H](CCC(=O)N[C@@H](CS)C(=O)NCC(=O)O)C(=O)O" in this test?
Result: inactive

Problem: Which outcome was entered for the molecule "Cc1cc(C)c(Cn2nc(C(C)(C)C)cc2C(=O)Nc2cccc(C(F)(F)F)c2)c(C)c1" in this test?
Result: inactive

Problem: Which outcome was entered for the molecule "CCCc1cc(=O)oc2c1c(C)nn2-c1ccccc1" in this test?
Result: active

* * *

# ASSAY_TEXT: chemical genetic growth profiling, strain panel (AID 1159580)
# TEST_PARAMETERS: S. cerevisiae deletion strains, growth OD, locus YLR357W, strain rsc2, active compounds read low
Among all 5,500 compounds or so, about 2,000 (36%) were called active. Not shown: some 18% with an inconclusive outcome. This is one part of the list.
# key: entry, value: normalized growth
No unit in the answer, please; the number alone is enough.

Answered cases to consult:
COMPOUND: COC1CC2CCC(C)C(O)(O2)C(=O)C(=O)N2CCCCC2C(=O)OC(C(C)CC2CCC(O)C(OC)C2)CC(=O)C(C)/C=C(\C)C(O)C(OC)C(=O)C(C)CC(C)/C=C/C=C/C=C/1C (stereo not drawn)
normalized growth: 0.123

COMPOUND: CN(C)[C@@H]1C(=O)C(C(N)=O)=C(O)[C@@]2(O)C(=O)C3=C(O)c4c(O)cccc4[C@@](C)(O)[C@H]3[C@H](O)[C@@H]12
normalized growth: 1

Problem: Fill in the blank: the reported normalized growth of "Nc1ccc(C(=O)O)cc1" is ____.
Result: 1.03

Problem: Fill in the blank: the reported normalized growth of CC(C)=CCCC(C)[C@@H]1CC[C@]2(C)C3=C(CC[C@@]12C)C1(C)CC[C@H](O)C(C)(C)C1CC3 (stereo partly drawn) is ____.
Result: 1.13

Problem: Fill in the blank: the reported normalized growth of "N=C(N)N" is ____.
Result: 0.977

Problem: Fill in the blank: the reported normalized growth of CC1(C)CC2C1CC[C@]1(C)CCC3C(C(=O)O)CC(=O)O[C@@]32C1 (stereo partly drawn) is ____.
Result: 1.13

Problem: Fill in the blank: the reported normalized growth of "C[C@H]1c2cccc(O)c2C(O)=C2C(=O)[C@]3(O)C(O)=C(C(N)=O)C(=O)[C@@H](N(C)C)[C@@H]3[C@@H](O)[C@@H]21" is ____.
Result: 0.911

Problem: Fill in the blank: the reported normalized growth of CC1(C)CC2C1CC[C@]1(CBr)CCC3C(CC(=O)O)C(=O)O[C@@]32C1 (stereo partly drawn) is ____.
Result: 1.04

* * *

# ASSAY_TEXT: chemical genetic growth profiling, strain panel (AID 1159580);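 further: tested at 20 µM; growth read once vehicle control cultures reached saturation at 30 °C; 1 = growth at the plate median or of vehicle wells; lower values mean less growth of the strain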
# TEST_PARAMETERS: S. cerevisiae deletion strains, growth OD, locus YDR162C, strain NBP2, active compounds read low
The whole screen tested about 5,500 compounds, of which about 2,000 (36%) were called active. About 18% were inconclusive and are not listed. Some of the results follow.
Binary call on normalized growth with cut-off 1: strictly below means t, and equality or higher means f.

Here's what some known entries look like.
COMPOUND: CC(C)c1ccc2c(c1)CCC1C(C)(C(N)=O)CCCC21C (stereo not given)
QUALITATIVE_LABEL: t
--
COMPOUND: COC(=O)c1c(OC)cc2c(c1C)Oc1c(Cl)c(O)c(Cl)c(C)c1C(=O)O2
QUALITATIVE_LABEL: t
--
COMPOUND: CC(C)c1ccc2c(c1)CCC1[C@](C)(CN)CCC[C@]21C (stereo not given in full)
QUALITATIVE_LABEL: t

Please find the next compound below.
Problem: Does "COC(=O)c1c(C)c2c(c(C)c1OC)OC(=O)c1c(C)c(Cl)c(OC)c(Cl)c1O2" have normalized growth strictly under 1?
Result: f

* * *

# ASSAY_TEXT: chemical genetic growth profiling, strain panel (AID 1159580);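 further: tested at 20 µM; growth read once vehicle control cultures reached saturation at 30 °C; 1 = growth at the plate median or of vehicle wells; lower values mean less growth of the strain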
# TEST_PARAMETERS: S. cerevisiae deletion strains, growth OD, locus YNL298W, strain CLA4, active compounds read low
Hit rate of the full screen: of about 5,500 compounds, about 2,000 (36%) were called active. Inconclusive results (about 18%) are left out. Some of the results follow.
RESULT_TYPE: normalized growth
No unit in the answer, please; the number alone is enough.

Answered cases to consult:
MOLECULE: COc1ccc([C@@H]2CC(=O)c3c(O)cc(O[C@@H]4O[C@H](CO[C@H]5O[C@@H](C)[C@H](O)[C@@H](O)[C@H]5O)[C@@H](O)[C@H](O)[C@H]4O)cc3O2)cc1O
normalized growth: 0.972
--
MOLECULE: C/C1=C\CC(C)(C)/C=C/CC2(C)OC2CC1 (stereo not given)
normalized growth: 0.995
--
MOLECULE: COC(=O)c1c(C)c2c(c(C)c1O)OC(=O)c1c(C)c(Cl)c(O)c(Cl)c1O2
normalized growth: 1.01
--
MOLECULE: COc1ccccc1OCC(O)CO (stereo not given)
normalized growth: 1.01
--
MOLECULE: CC[N+](C)(C)c1cccc(O)c1
normalized growth: 0.979

Problem: Fill in the blank: the reported normalized growth of CC(=O)O[C@@H]1CC2C(C)(C)[C@H](O)C=C[C@]2(C)C2CC[C@]3(C)C(=CC(=O)O[C@H]3c3ccoc3)[C@@]21C (stereo not given in full) is ____.
Result: 1.01

Problem: Fill in the blank: the reported normalized growth of "NCCCCCCNS(=O)(=O)c1cccc2c(Cl)cccc12" is ____.
Result: 0.983

Problem: Fill in the blank: the reported normalized growth of "C=C1c2c(Cl)ccc(O)c2C(O)=C2C(=O)[C@]3(O)C(O)=C(C(N)=O)C(=O)[C@@H](N(C)C)[C@@H]3[C@@H](O)[C@H]12" is ____.
Result: 1

Problem: Fill in the blank: the reported normalized growth of "CNNC" is ____.
Result: 0.994

Problem: Fill in the blank: the reported normalized growth of "C/C1=C/CC(C)(C)/C=C/C/C(C)=C/CC1" is ____.
Result: 0.989

Problem: Fill in the blank: the reported normalized growth of CC(C)CCCC(C)[C@H]1CCC2C3CC=C4C[C@@H](O)CC[C@]4(C)C3CC[C@@]21C (stereo not given in full) is ____.
Result: 0.995

Problem: Fill in the blank: the reported normalized growth of NCC(N)C(=O)c1ccccc1 (stereo not given) is ____.
Result: 1.01

Problem: Fill in the blank: the reported normalized growth of "CS(=O)(=O)Nc1ccc([N+](=O)[O-])cc1Oc1ccccc1" is ____.
Result: 0.966

* * *

# ASSAY_TEXT: chemical genetic growth profiling, strain panel (AID 1159580);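 further: tested at 20 µM; growth read once vehicle control cultures reached saturation at 30 °C; 1 = growth at the plate median or of vehicle wells; lower values mean less growth of the strain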
# TEST_PARAMETERS: S. cerevisiae deletion strains, growth OD, locus YAL021C, strain ccr4, active compounds read low
In all, about 5,500 compounds went through this assay and about 2,000 (36%) were called active. Inconclusive results (about 18%) are left out. Some of the results follow.
RESULT_TYPE: normalized growth

Answered cases to consult:
COMPOUND: CC(CCC(=O)O)[C@H]1CCC2C3C(=O)C[C@@H]4CC(=O)CC[C@]4(C)C3CC(=O)[C@@]21C (stereo not given in full)
normalized growth: 0.995 (inactive)
//
COMPOUND: C=C1c2cccc(O)c2C(O)=C2C(=O)[C@]3(O)C(O)=C(C(N)=O)C(=O)[C@@H](N(C)C)[C@@H]3[C@@H](O)[C@H]12
normalized growth: 1.02 (inactive)
//
COMPOUND: CCCOc1ccc2nc(NC(=O)OC)[nH]c2c1
normalized growth: 1.03 (inactive)

Problem: Fill in the blank: the reported normalized growth of C[C@H](CCC(=O)O)[C@H]1CCC2C3C(=O)CC4CC(=O)CC[C@]4(C)C3CC(=O)[C@@]21C (stereo not given in full) is ____.
Result: 0.908 (inactive)

Problem: Fill in the blank: the reported normalized growth of "CCCSc1ccc2nc(NC(=O)OC)[nH]c2c1" is ____.
Result: 1.01 (inactive)
